Recorded pIC50 by entry
Tested on: P. falciparum stage V female gametocytes
assay-summary: P. falciparum female gametocyte activation assay (Pf FGAA), 24 h or 48 h preincubation, Pfs25 expression readout
Format: cell-based, Plasmodium falciparum NF54
test-conditions: mean; P. falciparum female gametocyte activation assay; read-out: Gametocytes mean Pf FGAA IC50
Hey, just a heads up that pIC50 is the negative log base 10 of the concentration in molar.

These solved cases illustrate the format of a correct answer.
compound	pIC50
Cc1c(Cn2ncc(N3CCC(N)CC3)c(Cl)c2=O)cccc1NC(=O)Nc1ccc(-c2ccccc2)cc1.O=C(O)C(F)(F)F	5.96
Cl.OC(CNCCCCCCNCC(O)c1ccc(Cl)c(Cl)c1)c1ccc(Cl)c(Cl)c1 (stereo not shown)	6.05
CC(C)(CN)c1cc(-c2ccc(Cl)c(O)c2)c(-c2ccncc2)o1.Cl	6.38
ON=C1CCc2cc(-c3cc(-c4ccc(OC5CCNCC5)cc4)oc3-c3ccncc3)ccc21	6.70

So what's the measured pIC50 for this one? CN1CCc2cc(NS(=O)(=O)c3ccc(-c4ccc(Cl)cc4)cc3)c(OCCCN3CCCCC3)cc2CC1.Cl
6.01

Next up: Cc1cc(F)ccc1-c1nc(NCCCNCCc2ccccc2)nc2c1ccc(=O)n2-c1c(F)cccc1F.O=C(O)C(F)(F)F
5.44

Cl.Nc1c(I)cc(C(=O)Nc2ccc3nc4c(c(N)c3c2)CCCC4)cc1I , same question.
6.11

* * *

Test system: P. falciparum stage V female gametocytes
assay-summary: P. falciparum female gametocyte activation assay (Pf FGAA), 24 h or 48 h preincubation, Pfs25 expression readout
Format: cell-based, Plasmodium falciparum NF54
test-conditions: 24h incubation time; read-out: Pf FGAA IC50 (µM) 24h
IC50 overview
Reply with just the number (in µM).

Known results for compounds:
compound	target	IC50, µM
Cc1cccc2nc(-c3ccc(-c4ccc(CNCc5ccc(CN)cc5)cc4)s3)[nH]c12.O=C(O)C(F)(F)F	P. falciparum stage V female gametocytes	1.17
O=C(NCC1CCN(Cc2cccc(C(F)(F)F)c2)C1)c1cc(-c2cccc(F)c2)cs1.O=C(O)C(F)(F)F (stereo not drawn)	P. falciparum stage V female gametocytes	2.82
COc1cccc(CCNC(C)Cc2ccc(OCCCCOc3ccccc3)cc2)c1 (stereo not drawn)	P. falciparum stage V female gametocytes	3.72
COC(=O)c1ccc(-c2ccc(C(=O)NCC3CCN(c4nc(N)c5cc(OC)c(OC)cc5n4)CC3)cc2)cc1	P. falciparum stage V female gametocytes	1.88
O=C(c1ccc([N+](=O)[O-])o1)N1CCN(c2nc3c(F)cc(F)cc3s2)CC1	P. falciparum stage V female gametocytes	1.25

I'd like to know its IC50. The compound in question is CN(/N=C/C=C/c1ccc(Cl)cc1)c1nc(NCCc2ccc(O)cc2)nc(N2CCNCC2)n1
11.2

Next up: CC(Cc1ccc(NC(=O)c2ccc(CC(C)NCc3ccc(Cl)cc3)cc2)cc1)NCCc1cccc(Cl)c1 (stereo not drawn)
9.9

// next record CC(=O)Nc1ccc2[nH]cc(C3CCN(CC4CCN(C(=O)/C=C/c5ccc(Cl)c(Cl)c5)CC4)CC3)c2n1
14.2

Further, for CC(C)N1CCN(C(CN2CCN(CCCOc3ccccc3-c3ccccc3)CC2)c2ccc(F)cc2)CC1.Cl (stereo not drawn) ?
5.74

Please answer likewise for CCOc1ccc2c(=NN=Cc3cc(OC)c(OC)cc3OC)cc(C)[nH]c2c1
4.97

Continue with CCN(CC)CCN(Cc1ccc(-c2ccc(Cl)cc2)cc1)C(=O)Cn1cc(CN(C)C)c(=O)nc1SCc1ccc(F)cc1
9.4

Entry to check: COc1cc2nc(Nc3ccc4c(ccn4Cc4ccccc4)c3)nc(Nc3ccc4c(ccn4Cc4ccccc4)c3)c2cc1OC
5.44

Please answer likewise for O=C(NCC1CCN(Cc2cccc(C(F)(F)F)c2)C1)c1cc(-c2cccc(Cl)c2)cs1.O=C(O)C(F)(F)F (stereo not drawn)
12

How about this compound: O=C(O)C(F)(F)F.O=c1[nH]ccc2nc(N[C@@H]3CCNC3)nc(Nc3cc(Cl)cc(Cl)c3)c12
2.57
